# EXPERIMENTAL TARGET: fusion protein PRI
# Sequence (chain, as listed by the source): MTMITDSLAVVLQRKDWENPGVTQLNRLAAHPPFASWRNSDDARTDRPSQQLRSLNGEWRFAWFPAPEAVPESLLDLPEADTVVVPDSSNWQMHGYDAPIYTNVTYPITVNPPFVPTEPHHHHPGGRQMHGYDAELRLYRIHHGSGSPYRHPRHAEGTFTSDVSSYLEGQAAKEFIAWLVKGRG
TEST READOUT: relative cleavage efficiency

# lookup: relative cleavage efficiency of OmpT protease variant OmpT D97I (protein) STETLSFTPDNINADISLGTLSGKTKERVYLAEEGGRKVSQLDWKFNNAAIIKGAINWDLMPQISIGAAGWTTLGSRGGNMVDQDWMDSSNPGTWTIESRHPDTQLNYANEFDLNIKGWLLNEPNYRLGLMAGYQESRYSFTARGGSYIYSSEEGFRDDIGSFPNGERAIGYKQRFKMPYIGLTGSYRYEDFELGGTFKYSGWVESSDNDEHYDPGKRITYRSKVKDQNYYSVAVNAGYYVTPNAKVYVEGAWNRVTNKKGNTSLYDHNNNTSDYSKNGAGIENYNFITTAGLKYTF
less than 3.0%

Would you mind doing OmpT protease variant OmpT D97R (protein) STETLSFTPDNINADISLGTLSGKTKERVYLAEEGGRKVSQLDWKFNNAAIIKGAINWDLMPQISIGAAGWTTLGSRGGNMVDQDWMDSSNPGTWTRESRHPDTQLNYANEFDLNIKGWLLNEPNYRLGLMAGYQESRYSFTARGGSYIYSSEEGFRDDIGSFPNGERAIGYKQRFKMPYIGLTGSYRYEDFELGGTFKYSGWVESSDNDEHYDPGKRITYRSKVKDQNYYSVAVNAGYYVTPNAKVYVEGAWNRVTNKKGNTSLYDHNNNTSDYSKNGAGIENYNFITTAGLKYTF as well?
less than 3.0%
